- Tested on: soybean
- protocol: Test Example 1: foliage treatment, upland pot test
- Assay type: in vivo, Glycine max Merr.
- condition.description: crop, active ingredient 500 g/ha, observed 18th to 23rd day, 0 = non-treated, 100 = complete kill
Each entry below lists one item and its recorded Growth controlling degree (%) Soybean value.
Return type: number; implicit unit %.

Example cases with answers are listed next.
# compound, Growth controlling degree (%) Soybean
data = [
    ("CCCC(=O)N(C)C(c1cnccc1C(F)(F)F)C(C)C (stereo not drawn)", 80),
    ("CC(C)C(c1cnccc1Cl)N(C)C(=O)Cc1ccccc1F (stereo not drawn)", 50),
]

// Growth controlling degree (%) Soybean lookup, compound = COc1ccc(C=CC(=O)N(C)C(c2cnccc2C(F)(F)F)C(C)C)cc1 (stereo not drawn) , result: 70

---

- System: soybean
- protocol: Test Example 1: foliage treatment, upland pot test
- Type: in vivo, Glycine max Merr.
- condition.description: crop, active ingredient 500 g/ha, observed 18th to 23rd day, 0 = non-treated, 100 = complete kill
- Description: Upland field soil was put into a 1/170,000 ha pot, and seed of various plants were sown. […] On the 18th to 23rd days after the application of the herbicide, the growth of the respective plants was visually observed, and the herbicidal effects were evaluated by the growth controlling degrees (%) ranging from 0 (equivalent to the non-treated plot) to 100 (complete kill), whereby the results shown in Table 3, were obtained.
Entries whose Growth controlling degree (%) Soybean is below 50% take y; entries at or above 50% take n.

Known results for compounds:
# compound, label.class
measured = [
    ("CC(C)C(c1cnccc1Cl)N(C)C(=O)Cc1cccc(F)c1F (stereo not shown)", "y"),
    ("CC(C(=O)N(C)C(c1cnccc1C(F)(F)F)C(C)C)c1ccccc1 (stereo not shown)", "y"),
    ("CC(C)C(c1cnccc1C(F)(F)F)N(C)C(=O)CC1CCCC1 (stereo not shown)", "n"),
    ("CC(C)C(c1cnccc1Cl)N(C)C(=O)Cc1cccc(C(F)(F)F)c1 (stereo not shown)", "y"),
    ("CC(C)C(c1cnccc1C(F)(F)F)N(C)C(=O)Cc1ccc(C(F)(F)F)cc1 (stereo not shown)", "n"),
]

Could you please tell me whether Growth controlling degree (%) Soybean recorded for CC(C)C(=O)N(C)C(c1cnccc1C(F)(F)F)C(C)C (stereo not shown) is less than 50%?
n

Could you please tell me whether Growth controlling degree (%) Soybean recorded for CC(C)C(c1cnccc1C(F)(F)F)N(C)C(=O)Cc1csc2ccccc12 (stereo not shown) is less than 50%?
n

Could you please tell me whether Growth controlling degree (%) Soybean recorded for CC(C)C(c1cnccc1C(F)(F)F)N(C)C(=O)Cc1cccc(C(F)(F)F)c1 (stereo not shown) is less than 50%?
n

Could you please tell me whether Growth controlling degree (%) Soybean recorded for CC(C)C(c1cnccc1C(F)(F)F)N(C)C(=O)COc1ccc(F)cc1 (stereo not shown) is less than 50%?
n

---

Each entry below lists one item and its recorded Growth controlling degree (%) Prickly sida value.
- System: prickly sida
- protocol: Test Example 2: soil surface treatment, upland pot test
- Assay type: in vivo, Sida spinosa L.
- condition.description: active ingredient 250 g/ha, observed 20th to 28th day
Return type: number; implicit unit %.

Example cases with answers are listed next.
# compound, tested.system, assay.result
records = [
    ("CC(C)=CC(=O)N(C)C(c1cnccc1C(F)(F)F)C(C)C (stereo not drawn)", "prickly sida", 70),
    ("CC(C)C(c1cnccc1C(F)(F)F)N(C)C(=O)C(Br)C(C)(C)C (stereo not drawn)", "prickly sida", 60),
    ("CC(C)C(c1cnccc1C(F)(F)F)N(C)C(=O)C(F)(F)F (stereo not drawn)", "prickly sida", 70),
    ("CC(C)C(c1cnccc1C(F)(F)F)N(C)C(=O)C1CC1 (stereo not drawn)", "prickly sida", 95),
    ("CC(C)C(c1cnccc1C(F)(F)F)N(C)C(=O)CC(C)(C)C (stereo not drawn)", "prickly sida", 40),
]

// Growth controlling degree (%) Prickly sida lookup, compound = CC(C)C(c1cnccc1C(F)(F)F)N(C)C(=O)Cc1ccccc1Cl (stereo not drawn) , result: 70

// Growth controlling degree (%) Prickly sida lookup, compound = CC(C)C(c1cnccc1C(F)(F)F)N(C)C(=O)Cc1ccc(F)cc1 (stereo not drawn) , result: 80

// Growth controlling degree (%) Prickly sida lookup, compound = CC(C)C(c1cnccc1C(F)(F)F)N(C)C(=O)C(F)=Cc1ccccc1 (stereo not drawn) , result: 80

// Growth controlling degree (%) Prickly sida lookup, compound = CC(C)C(c1cnccc1C(F)(F)F)N(C)C(=O)Cc1ccc(Br)cc1F (racemic) , result: 50

---

- Test system: prickly sida
- protocol: Test Example 1: foliage treatment, upland pot test
- Type: in vivo, Sida spinosa L.
- condition.description: active ingredient 500 g/ha, observed 18th to 23rd day, 0 = non-treated, 100 = complete kill
Each entry below lists one item and its recorded Growth controlling degree (%) Prickly sida value.

Example cases with answers are listed next.
# compound, assay.result
measured = [
    ("C=CC(=O)N(C)C(c1cnccc1C(F)(F)F)C(C)C (centres unmarked)", "70%"),
    ("CC(C)C(c1cnccc1C(F)(F)F)N(C)S(=O)(=O)c1ccc(F)cc1F (racemic)", "70%"),
    ("CCOC(=O)N(C)C(c1cnccc1C(F)(F)F)c1cccc2ccccc12 (centres unmarked)", "90%"),
]

// Growth controlling degree (%) Prickly sida lookup, compound = COCC(=O)N(C)C(c1cnccc1C(F)(F)F)C(C)C (centres unmarked) , result: 70%

// Growth controlling degree (%) Prickly sida lookup, compound = CC(C)C(c1cnccc1Cl)N(C)C(=O)Cc1c(F)cccc1F (centres unmarked) , result: 80%

---

Each entry below lists one item and its recorded Growth controlling degree (%) Soybean value.
- System: soybean
- protocol: Test Example 1: foliage treatment, upland pot test
- Format: in vivo, Glycine max Merr.
- condition.description: crop, active ingredient 500 g/ha, observed 18th to 23rd day, 0 = non-treated, 100 = complete kill
Return type: number; implicit unit %.

Example cases with answers are listed next.
# compound, observable, assay.result
records = [
    ("CC(Oc1ccccc1)C(=O)N(C)C(c1cnccc1C(F)(F)F)C(C)C (stereo not drawn)", "Growth controlling degree (%) Soybean", 60),
    ("CC(C)C(c1cnccc1C(F)(F)F)N(C)C(=O)C=Cc1ccc(Br)cc1 (stereo not drawn)", "Growth controlling degree (%) Soybean", 60),
]

Next up:
// Growth controlling degree (%) Soybean lookup, compound = C=CC(=O)N(C)C(c1cnccc1C(F)(F)F)C(C)C (stereo not drawn) , result: 60

---

Each entry below lists one item and its recorded Growth controlling degree (%) Rice value.
- Test system: rice (var. Nihonbare)
- protocol: Test Example 3: paddy pot test, transplanted rice
- Assay type: in vivo, Oryza sativa L.
- condition.description: active ingredient 500 g/ha, applied 4th day after transplantation, visually observed 21st day after application, 0 = non-treated, 100 = complete kill
- Excerpt: Paddy field soil was put into a 1/1,000,000 ha pot, and seed of barnyardgrass and japanese bulrush were sown and slightly covered with soil. Then, the pot was left to stand still in a greenhouse in a state where the depth of flooding water was from 0.5 to 1 cm, and one day or two days later, tubers of japanese ribbon wapato were planted. […]
Return type: number; implicit unit %.

# compound, Growth controlling degree (%) Rice
data = [
    ("CC(C)C(NC(=O)Cc1ccc(Br)cc1)c1cnccc1C(F)(F)F (centres unmarked)", 0),
]

// Growth controlling degree (%) Rice lookup, compound = CC(C)C(c1cccnc1)N(C)C(=O)Cc1ccccc1 (centres unmarked) , result: 0

// Growth controlling degree (%) Rice lookup, compound = CC(C)C(c1cnccc1C(F)(F)F)N(C)C(=O)C=Cc1ccc(Br)cc1 (centres unmarked) , result: 0

// Growth controlling degree (%) Rice lookup, compound = CC(C)C(c1cnccc1C(F)(F)F)N(C)C(=O)Cc1ccccc1 (centres unmarked) , result: 60

// Growth controlling degree (%) Rice lookup, compound = CCCC(=O)N(C)C(c1cnccc1C(F)(F)F)C(C)C (centres unmarked) , result: 95

---

- Test system: corn
- protocol: Test Example 2: soil surface treatment, upland pot test
- Assay type: in vivo, Zea mays L.
- condition.description: active ingredient 500 g/ha, observed 20th to 28th day
observable: Growth controlling degree (%) Corn

# molecule, Growth controlling degree (%) Corn
measured = [
    ("CC(C)C(c1cnccc1C(F)(F)F)N(C)S(=O)(=O)c1ccc(F)cc1F (racemic)", "10%"),
    ("CC(C)C(c1cnccc1C(F)(F)F)N(C)C(=O)Cc1cc(F)cc(C(F)(F)F)c1 (stereo not shown)", "20%"),
    ("CC(C)C(c1cnccc1Cl)N(C)C(=O)Cc1cccc(F)c1 (stereo not shown)", "30%"),
    ("CC(C)C(c1cnccc1C(F)(F)F)N(C)C(=O)CCc1ccccc1 (stereo not shown)", "40%"),
    ("CCN(C(=O)Cc1cccc(C(F)(F)F)c1)C(c1cnccc1C(F)(F)F)C(C)C (stereo not shown)", "10%"),
]

// Growth controlling degree (%) Corn lookup, molecule = CNC(=S)N(C)C(c1cnccc1C(F)(F)F)C(C)C (racemic) , result: 10%

// Growth controlling degree (%) Corn lookup, molecule = CC(C)C(c1cnccc1C(F)(F)F)N(C)C(=O)Cc1ccc(C(F)(F)F)cc1 (stereo not shown) , result: 30%

// Growth controlling degree (%) Corn lookup, molecule = CC(C)C(c1cnccc1C(F)(F)F)N(C)C(=O)Cc1c(F)ccc(F)c1F (stereo not shown) , result: 20%

// Growth controlling degree (%) Corn lookup, molecule = CC(C)C(c1cnccc1C(F)(F)F)N(C)S(=O)(=O)c1ccccc1 (stereo not shown) , result: 20%

// Growth controlling degree (%) Corn lookup, molecule = CC(C)C(c1cnccc1Cl)N(C)C(=O)Cc1cccc(F)c1F (stereo not shown) , result: 0%

// Growth controlling degree (%) Corn lookup, molecule = CCCC(=O)N(C)C(c1cnccc1C(F)(F)F)C(C)C (stereo not shown) , result: 50%

// Growth controlling degree (%) Corn lookup, molecule = CCN(C(=O)Cc1ccc(F)cc1)C(c1cnccc1C(F)(F)F)C(C)C (stereo not shown) , result: 40%

// Growth controlling degree (%) Corn lookup, molecule = CC(C)C(c1cnccc1C(F)(F)F)N(C)C(=O)C=Cc1ccc(C(F)(F)F)cc1 (stereo not shown) , result: 30%

// Growth controlling degree (%) Corn lookup, molecule = CC(C)C(c1cnccc1C(F)(F)F)N(C)C(=O)CC1Cc2ccccc2C1 (stereo not shown) , result: 40%

// Growth controlling degree (%) Corn lookup, molecule = CC(C)C(c1cnccc1C(F)(F)F)N(C)C(=O)CCl (stereo not shown) , result: 10%

// Growth controlling degree (%) Corn lookup, molecule = Cc1ccc(OCC(=O)N(C)C(c2cnccc2C(F)(F)F)C(C)C)cc1 (stereo not shown) , result: 10%
